Cited source for all entries: PubChem BioAssay (NCI)

# Test system: COLO 205 colon
# assay_info: NCI-60 one-dose screen, 48 h
# condition_info: 10 µM unless noted
This is part of a sample that, as a whole, favours compounds with a hit. Of some 83,000 tested, about 20% had one in any assay. Calls of active or inactive are those of the source. The calls were made as follows: active = growth percent below 10; inactive = the rest.
API: response.call in active, inactive

INSERT INTO assay_data (molecule, target, discrete_label) VALUES
  ('C#CCOc1cccc(Nc2ncc3ncn(C4CCN(C(=O)CCl)C4)c3n2)c1 (stereo not given)', 'COLO 205 colon', 'active'),
  ('O=C1/C(=C/c2ccc(-c3ccccc3C(F)(F)F)o2)SC(=S)N1CCc1ccc(O)cc1', 'COLO 205 colon', 'inactive');

# input Per the assay record, what outcome was assigned to "CONC1=Nc2cc(NC(N)=NCc3ccccc3)c(N(C)C3CCCCC3)cc2OC1" ?
# output active

# input Per the assay record, what outcome was assigned to "N#C/C(=C\c1ccc(Br)cc1)n1nnc2c(F)cccc21" ?
# output active

# input Per the assay record, what outcome was assigned to CCCCCC#CC1OC23CCCCC2C(C#N)(C(=N)O3)C1(C#N)C#N (stereo not given) ?
# output inactive

====

# System: SF-268 CNS
# assay_info: NCI-60 one-dose screen, 48 h (100 = growth as untreated, 0 = no growth, -100 = all killed)
# condition_info: 10 µM unless noted
This is part of a sample that, as a whole, favours compounds with a hit. Of some 83,000 tested, about 20% had one in any assay.
readout_kind: growth (%)
All answers are understood in %, so give the number only.

Reference set (2 entries):
INSERT INTO measurements (molecule, units_of_measure, experimental_value) VALUES
  ('CCNC(=O)Oc1ccc(/C(=C(/C)Cc2ccc(OC)cc2)c2ccc(OCCN(CC)CC)cc2)cc1', '%', 67.1),
  ('O=C(CCN1CCOCC1)Nc1cccc(-n2cc(-c3ccncc3)c(-c3ccc(Cl)c(O)c3)n2)c1', '%', 37);

# input What growth value was documented for this molecule, "COCCOc1cc2ncnc(N3CCN(S(=O)(=O)c4ccccc4Cl)CC3)c2cc1OCCOC" ?
# output 86.2

# input What growth value was documented for this molecule, O=C1OCC2=C1C(c1cccc(C(F)(F)F)c1)c1cc3c(cc1N2CCO)CCC3 (stereo not given) ?
# output 17.3

# input What growth value was documented for this molecule, "Cc1ccccc1SSc1ccccc1C" ?
# output 95.2

# input What growth value was documented for this molecule, "O=c1cc(N/N=C/c2ccc(F)cc2)c2cc(Cl)ccc2[nH]1" ?
# output 106

# input What growth value was documented for this molecule, "Cc1ccc(/C=C(\C#N)c2cc3ccccc3[nH]2)cc1" ?
# output 68.1

# input What growth value was documented for this molecule, "Cc1ccc(-c2nc([P+](c3ccccc3)(c3ccccc3)c3ccccc3)c(Nc3ccccc3)o2)cc1" ?
# output 10.6

# input What growth value was documented for this molecule, "Cc1ccc(Cc2cnc(NC(=O)c3cc(C)oc3C)s2)cc1" ?
# output 67.8

# input What growth value was documented for this molecule, "Cc1cccc(Cc2cnc(NC(=O)CCCOc3ccc(Cl)cc3)s2)c1" ?
# output 50.2

====

# Tested on: SK-MEL-2 melanoma
# assay_info: NCI-60 one-dose screen, 48 h (100 = growth as untreated, 0 = no growth, -100 = all killed)
# condition_info: 10 µM unless noted
This is part of a sample that, as a whole, favours compounds with a hit. Of some 83,000 tested, about 20% had one in any assay. Active and inactive are the calls of the source. The calls were made as follows: active = growth percent below 10; inactive = the rest.
Listed below: growth values for each entry.

Reference set (8 entries):
INSERT INTO assay_data (molecule, experimental_value) VALUES
  ('O=C1/C(=C/c2ccc(-c3cccc(C(F)(F)F)c3)o2)SC(=S)N1CCc1ccc(O)cc1', '56.4% (inactive)'),
  ('CCN(C(=O)N1CCN(c2cc3c(cc2F)c(=O)c(C(=O)O)cn3C2CC2)CC1)c1nc(-c2ccccc2)cs1', '45.9% (inactive)'),
  ('O=C1C(=C(O)c2ccccc2)C(=O)c2ccccc21', '105% (inactive)'),
  ('COc1ccc(-c2[nH]c3ccccc3c2-c2ccc(OC)cc2)cc1', '64.6% (inactive)'),
  ('COc1cc(/C=C2\CCC/C(=C\c3cc(CN4CCCC4)c(O)c(OC)c3)C2=O)cc(CN2CCCC2)c1O', '82.6% (inactive)'),
  ('Cc1c(O)c(O)cc2c3c(oc12)CC(c1ccc2c(c1)OCO2)CC3=O (stereo not given)', '83.8% (inactive)'),
  ('C=CCOc1ccc(/C=C2\SC(=S)N(CCc3ccc(O)cc3)C2=O)cc1', '106% (inactive)'),
  ('COc1cc(/C=N/NC(=O)CCN2c3ccccc3Sc3ccccc32)cc(OC)c1OC', '98.4% (inactive)');

# input What growth value was documented for this molecule, "CCN(CC)CCOc1ccccc1C" ?
# output 101% (inactive)

# input What growth value was documented for this molecule, CC[C@]1(O)CC2CN(CCc3c([nH]c4ccccc34)C(C(=O)OC)(c3cc4c(cc3OC)N(C=O)[C@H]3[C@@](O)(C(=O)OC)[C@H](OC(C)=O)[C@]5(CC)[C@@H]6C[C@@H]6CN6CC[C@]43[C@@H]65)C2)C1 (stereo not given in full) ?
# output 11.6% (inactive)

# input What growth value was documented for this molecule, "COc1ccc(-c2cc3cnc4ccccc4c3oc2=O)cc1" ?
# output 120% (inactive)

# input What growth value was documented for this molecule, "COc1ccc(/C=C(\C#N)c2cc3ccccc3[nH]2)cc1" ?
# output 26.2% (inactive)

# input What growth value was documented for this molecule, "CCCCC1=C(Br)C(=O)c2nc(C)ccc2C1=O" ?
# output 109% (inactive)
